- Tested on: NCI-H522
- test.name: NCI tumour cell line growth inhibition, 48 h
Activity calls are given as the source filed them. No stated cut-off is given here; in the data, active = GI50 up to about 1.1 µM and inactive = higher.
GI50 by entry:

See these solved cases before continuing.
O=[N+]([O-])c1cccc(-c2ncc3c(n2)-c2ccccc2C3)c1 ... 24.7 µM (inactive)
NC1CCCCC1NCCNC1CCCCC1N (centres undefined) ... > 100 µM (inactive)
CCCCCc1c(CCCC)c(=O)[nH]c2cc(CNCC(OC)OC)ccc12 ... 17.6 µM (inactive)

Short answer for `CSc1cc(Cl)c(C)cc1S(=O)(=O)NC(=O)NNc1ccc(Cl)cc1` : GI50 was 70.3 µM (inactive)

Short answer for `c1ccc(Nc2nnc(Cn3ccc4ccccc43)s2)cc1` : GI50 was 51.8 µM (inactive)

Short answer for `Nc1c(S(=O)(=O)O)cc2cc(S(=O)(=O)O)ccc2c1/N=N/c1ccc(-c2ccc(/N=N/c3c(N)c(S(=O)(=O)O)cc4cc(S(=O)(=O)O)ccc34)c(S(=O)(=O)O)c2)cc1` : GI50 was > 100 µM (inactive)

----------
- Tested on: HOP-92
- test.name: NCI tumour cell line growth inhibition, 48 h
Calls of active or inactive are those of the source. No stated cut-off is given here; in the data, active = GI50 up to about 1.1 µM and inactive = higher.
Pick one: True = active, False = inactive

The examples below pair each entry with its known result.
CC(C)Cc1ccc(C(C)/C=C2\CCC(CN3CCCCC3)C2=O)cc1 (centres undefined) ... False
COC(=O)C1(C(=O)OC)CC(=O)c2c(OC(=O)c3cccc(OC)c3C#N)ccc(OC(=O)c3cccc(OC)c3C#N)c2C1 ... False
Cc1cccc(/N=N/C(=N\NC(=O)c2cc(Cl)ccc2O)c2ccc(N(CCC#N)CCC#N)cc2C)c1 ... False

Input line: Can you look up the reported call for COC(=O)CCc1ccc2c(c1)CC1(C2)Cc2ccc3c(c2C1)CCC3 (centres undefined) for me?
Output line: False

Input line: Can you look up the reported call for C=C/C(C)=C\CC1[C@](C)(O)CC[C@H]2C(C)(C)C(=O)CC[C@]12C (some centres undefined) for me?
Output line: False

Input line: Can you look up the reported call for `O=C(O)[C@@H]1OCCOCCO[C@@H](C(=O)O)[C@H](C(=O)O)OCCOCCO[C@H]1C(=O)O` for me?
Output line: False

Input line: Can you look up the reported call for `Nn1c(CCCCCCCCc2nnc(COc3ccc(Cl)cc3)n2N)nnc1COc1ccc(Cl)cc1` for me?
Output line: False

Input line: Can you look up the reported call for COc1cc2c(c(OC)c1OC)-c1c(cc3c(c1OC)OCO3)CC(C)C(C)(O)C2OC(=O)c1ccccc1 (centres undefined) for me?
Output line: False

Input line: Can you look up the reported call for `C=CCc1c(Cl)nc(Cl)nc1Cl` for me?
Output line: True

----------
- Test system: SK-MEL-28
- test.name: NCI tumour cell line growth inhibition, 48 h
Activity calls are given as the source filed them. No stated cut-off is given here; in the data, active = GI50 up to about 1.1 µM and inactive = higher.
measurement.type: GI50

COc1ccc(NC(=O)C(=O)C(C(=O)c2ccccc2)C2OC(=O)c3ccccc32)c([N+](=O)[O-])c1 (stereo not given) ... > 100 µM (inactive)
Cc1cc(N(CCOS(C)(=O)=O)CCOS(C)(=O)=O)ccc1C=O ... 3.68 µM (inactive)
O=C1CCCc2cc3c(cc21)CC1(C3)Cc2cc3c(cc2C1)C(=O)CCC3 ... 3.23 µM (inactive)

Short answer for `NS(=O)(=O)c1nnc(NC(=O)CCC(=O)O)s1` : GI50 was > 100 µM (inactive)

Short answer for `Cc1cnc2sn(-c3ccc([N+](=O)[O-])cc3)c(=O)c2c1` : GI50 was > 100 µM (inactive)

Short answer for `COC(=O)c1cc2c(cc1CC1Cc3cc4c(cc3C1)CCC4)CCC2` : GI50 was 19.5 µM (inactive)

Short answer for `Cc1ccc(-c2c(C#N)c(-c3ccccc3)c(C#N)c(=O)n2NS(=O)(=O)c2ccc(C)cc2)cc1` : GI50 was 52.2 µM (inactive)
